B1: Ribonuclease HI, P0A7Y4 (parent)
chain: MLKQVEIFTDGSCLGNPGPGGYGAILRYRGREKTFSAGYTRTTNNRMELMAAIVALEALKEHCEVILSTDSQYVRQGITQWIHNWKKRGWKTADKKPVKNVDLWQRLDAALGQHQIKWEWVKGHAGHPENERCDELARAAAMNPTLEDTGYQVEV

variants of: B1; details: Escherichia coli (strain K12); pH 3; Thermal; CD; glycine-HCl 10 mM; NaCl 0.1 M; reversible: yes; structure 2RN2; whole UniProt chain shown
Give Tm for every item shown.
Numbers only, in °C.

// worked examples, Tm included
variant_key=Q76L measured_quantity=Tm value=50.9
variant_key="E119V R41C" measured_quantity=Tm value=50.4
variant_key=E135K measured_quantity=Tm value=46.4

Below is a list of variants. For each, state its recorded Tm.
1. Q80L K117R
2. H62P T40A K122R

Marked response:
50
51.8
